Let's go through some recorded pKi values for GSK3β (Homo sapiens, UniProt P49841) together.
Keep in mind that pKi stands for -log10 of concentration in molar terms.

Worked examples follow.
COc1ccc(C2C(C#N)=C(N)Oc3n[nH]c(C)c32)cc1 (centres unmarked) ... 5.33
Cc1n[nH]c2c1C(c1ccco1)C(C#N)=C(N)O2 (centres unmarked) ... 4.98

Read the next record carefully.
Item: COc1ccccc1C1C(C#N)=C(N)Oc2n[nH]c(C)c21 (centres unmarked) | pKi: 4.94

* * *

Let's go through some recorded Ki values for GSK3β (Homo sapiens) together.
Use µM as the unit, but write only the number.

Worked examples follow.
Cc1n[nH]c2c1C(c1ccc(F)cc1)C(C#N)=C(N)O2 (centres unmarked) [Compound 5h] ... 12.5
Cc1[nH]nc2c1C(c1ccncc1)C(C#N)=C(N)O2 (centres unmarked) [Compound 5t] ... 5.8
Cc1[nH]nc2c1C(c1ccccc1)C(C#N)=C(N)N2 (centres unmarked) [Compound 7] ... 13.1
Cc1[nH]nc2c1C(c1cccc([N+](=O)[O-])c1)C(C#N)=C(N)O2 (centres unmarked) [Compound 5o] ... 5.04

Ki of Cc1n[nH]c2c1C(c1ccc(Cl)cc1)C(C#N)=C(N)O2 (centres unmarked) [Compound 5k] , assay on GSK3β (Homo sapiens), is 4.41
